Condition context: 298.15 K; 101.33 kPa; Liquid; Vibrating tube method
Numbers after ± are expanded uncertainties.
Items are presented alongside their recorded mass density.
Give me the value, and tack the unit on after it.

// below: answered compounds
CC(C)O [propan-2-ol] = 781.3 ± 2 kg/m3
COc1ccccc1 [anisole] = 989.3 ± 2 kg/m3
Brc1ccccc1 [bromobenzene] = 1488.3 ± 2 kg/m3
CC(=O)CC(C)=O [2,4-pentanedione] = 972 ± 2 kg/m3

Ask: Tell me mass density reported for CCO[Si](OCC)(OCC)OCC [tetraethoxysilane]
Reply: 933.4 ± 2 kg/m3

---

Assay info: refractive index (Na D-line) (dimensionless)
Condition context: 298.15 K; 101.33 kPa; Liquid; Standard Abbe refractometry
Items are presented alongside their recorded refractive index.
Please reply with the number alone, leaving off any unit.

COc1ccccc1 [anisole] = 1.5142
CCO[Si](OCC)(OCC)OCC [tetraethoxysilane] = 1.3825
CC#N [acetonitrile] = 1.3416
Brc1ccccc1 [bromobenzene] = 1.5571

Next compound, please.
Ask: Tell me refractive index reported for CC(C)O [propan-2-ol]
Reply: 1.3751

Sourced from the NIST ThermoML archive (doi:10.1016/j.jct.2007.03.007)
